Experiment: Oral bioavailability in mouse at 2.5 mg/kg
Type: ADME, organism-based
Conditions: in vivo
parameter: bioavailability (%)

mol-smiles: Cn1nc(-c2ccc(Cl)cc2)s/c1=N\c1ccc(F)c(C(=O)O)c1
measured: 49.3
//
mol-smiles: Cn1nc(-c2ccc(C(N)=O)cc2)s/c1=N\[C@@H]1CCC[C@@H](O)C1
measured: 38.5

====

Biological target: Phosphodiesterase 4 (Homo sapiens, UniProt P27815+Q08499+Q07343+Q08493)
Test: Inhibition of PDE4 (unknown origin) by fluorescent based assay
Type: protein assay
Reported IC50 values are given for each entry in this list.
parameter: IC50 (µM)

compound: COc1cc(CN(Cc2ccc(OC)cc2OC)c2ncnc3c2nnn3C2CC(C(F)(F)F)CCC2(F)F)cc(OC)c1 (centres undefined)
measured: 11.9
//
compound: CSc1nc2c(C)cccc2c(=O)n1-c1c(F)cccc1F
measured: 1.4
//
compound: CCn1c(NC(C)C)nc2c(C3CCN(C(=O)c4cccc(C)n4)C3)csc2c1=O (centres undefined)
measured: 0.046
//
compound: O=C(Nc1ccc(N2CCOCC2)cc1)c1cn(Cc2c(F)cccc2F)c2cccnc2c1=O
measured: 0.38
